Entries and their Kapp values follow.
- Tested on: Nucleic Acid
- EXPERIMENT: Displacement of ethidium bromide from calf thymus DNA after 1 min by fluorimetry
- Assay type: nucleic-acid assay
- MEASUREMENT_CONTEXT: Bos taurus
REPORTED_PROPERTY: Kapp (×10⁴ /M)

>>> print(df.to_string())
                               entry_smiles  observed_result
0  COC(=O)[C@H](CCCCN)NC(=O)[C@H](CC(C)C)NC(=O)CN1CCCNCCCNCCC1              7.1
1      COC(=O)CNC(=O)CNC(=O)CN1CCCNCCCNCCC1              4.2
2  COC(=O)[C@H](CO)NC(=O)[C@H](CC(C)C)NC(=O)CN1CCCNCCCNCCC1              7.2
3  COC(=O)CNC(=O)[C@H](CC(C)C)NC(=O)CN1CCCNCCCNCCC1                4
4  COC(=O)[C@H](Cc1ccccc1)NC(=O)[C@H](CC(C)C)NC(=O)CN1CCCNCCCNCCC1              6.6
5  COC(=O)[C@H](Cc1c[nH]c2ccccc12)NC(=O)[C@H](CC(C)C)NC(=O)CN1CCCNCCCNCCC1              4.7
6  COC(=O)[C@H](Cc1ccc(O)cc1)NC(=O)[C@H](CC(C)C)NC(=O)CN1CCCNCCCNCCC1              6.4
7  COC(=O)[C@H](C)NC(=O)[C@H](CC(C)C)NC(=O)CN1CCCNCCCNCCC1              5.9
